Values were extracted from ChEMBL document CHEMBL3430912.

# subject-of-test: Sterol 14-alpha demethylase (Trypanosoma cruzi (strain CL Brener), UniProt Q7Z1V1)
# Sequence (Q7Z1V1 whole entry): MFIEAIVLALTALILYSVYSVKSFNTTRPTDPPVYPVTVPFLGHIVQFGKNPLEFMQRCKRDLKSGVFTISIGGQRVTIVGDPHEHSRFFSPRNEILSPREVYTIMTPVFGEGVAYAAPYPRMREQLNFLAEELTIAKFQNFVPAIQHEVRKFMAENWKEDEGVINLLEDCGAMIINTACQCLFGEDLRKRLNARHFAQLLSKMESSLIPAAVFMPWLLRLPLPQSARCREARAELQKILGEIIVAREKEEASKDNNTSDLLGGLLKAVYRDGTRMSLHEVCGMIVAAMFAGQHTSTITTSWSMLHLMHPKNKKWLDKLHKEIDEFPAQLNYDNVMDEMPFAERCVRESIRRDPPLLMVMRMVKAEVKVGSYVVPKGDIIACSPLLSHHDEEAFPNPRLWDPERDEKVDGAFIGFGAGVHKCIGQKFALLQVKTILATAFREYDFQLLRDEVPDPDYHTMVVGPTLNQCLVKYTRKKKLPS
# test-protocol: GSK_TCAKS: pIC50 CYP51 from Trypanosoma cruzi.
Each entry below lists one item and its recorded IC50 value.
reported-property: IC50

INSERT INTO results (compound, observed) VALUES
  ('O=C(NCC1CCCCN1C(=O)c1cccc2ccccc12)c1ccccc1 (centres undefined)', '> 100 µM'),
  ('COc1ccc(C(C)N(C)c2ncc3c(N)nc(N)nc3n2)cc1F (centres undefined)', '> 100 µM'),
  ('Cc1cc(Nc2ccc(C#N)c(Cl)c2C)[nH]n1', '39.8 µM'),
  ('CC(C)C[C@H](NC(=O)c1csc(-c2cccs2)n1)C(=O)NC1(C#N)CC1', '> 100 µM');

====

# test-protocol: GSK_TCAKS: pIC50 HepG2 human cell line viability assay using luminiscence. […] Seeding density was checked to ensure that new mono-layers were not more than 50% confluent at the time of harvesting. Cell suspension was added to 500 mL of the same medium at a final density of 1.2 * 10^5 cells/mL. This cell suspension was dispensed (25 uL, 3000 cells per well) into 384-well clear-bottom plates using a Multidrop Combi dispenser. Prior to addition of the cell suspension, the screening compounds (250 nL) were pre-dispensed into the plates with an Echo liquid handler. Plates were incubated for 48 h at 37C, 5% CO2. After incubation, plates equilibrated at room temperature for 30 min before proceeding to develop the luminescent signal. The signal developer, CellTiter-Glo Reagent, was allowed to equilibrate at room temperature for 30 min and added to the plates (25uL per well) using a Multidrop Combi dispenser. Plates were left for 10 min at room temperature for stabilization and then read using a ViewLux.
# Assay type: toxicity, cell-based
reported-property: IC50 at 48 h

INSERT INTO assay_data (compound, observed) VALUES
  ('O=C(Cn1cnc([N+](=O)[O-])n1)Nc1ccc(Cl)cc1C(=O)c1ccccc1', '> 100 µM'),
  ('Cc1ccc(C)c(OC2CCN(C(=O)C(C)n3ccnc3)CC2)c1 (stereo not drawn)', '> 100 µM'),
  ('Cc1nc(-c2ccncc2)ncc1C(C)NC(=O)c1ccc(Cl)s1 (stereo not drawn)', '> 100 µM');

====

# subject-of-test: Sterol 14-alpha demethylase (Trypanosoma cruzi (strain CL Brener))
# test-protocol: GSK_TCAKS: pIC50 CYP51 from Trypanosoma cruzi.
pIC50: −log10 of the molar value.
reported-property: pIC50

INSERT INTO assay_data (molecule, qualifier, observed) VALUES
  ('COc1ccc2c(Cl)c(C(=O)N3CCC3)sc2c1Cl', '<', 4.00),
  ('O=[N+]([O-])c1ccc(-c2nnn(-c3ccc(Cl)cc3)n2)o1', '<', 4.00),
  ('CCOc1cc(NCCCN2CCN(C)CC2)c2ncccc2c1', '<', 4.00),
  ('COc1cc(OC)cc(C(=O)N[C@@H](CC(C)C)C(=O)NC2(C#N)CC2)c1', '<', 4.00),
  ('CS(=O)(=O)N1CCC(Nc2ncc(Br)c(Nc3cccc(F)c3C(N)=O)n2)CC1', '<', 4.00),
  ('O=C(NC(CO)c1ccc(F)cc1)c1ccc(-c2c[nH]c3ncccc23)s1 (stereo not given)', '=', 5.90),
  ('O=C(CC1(O)C(=O)N(Cc2ccccc2)c2ccc(Br)cc21)c1cccnc1 (stereo not given)', '=', 5.40),
  ('NC(=O)c1cc(F)ccc1Nc1nc(N[C@H]2CC[C@H](O)CC2)ncc1Br', '=', 5.00),
  ('CC1(C)CCC(=Cc2ccc(Cl)cc2)CC1(O)Cn1ccnc1 (stereo not given)', '=', 7.30),
  ('CC1CN(Cc2ccc(C#N)cc2)CCN1c1ccc(NC(=O)c2ccccc2F)cc1 (stereo not given)', '=', 4.50),
  ('CS(=O)(=O)c1ccc(Nc2nccc(Nc3n[nH]c4ccc(F)cc34)n2)c(F)c1', '=', 4.40),
  ('O=c1cc(NCCCNCc2cc(C(F)(F)F)cs2)[nH]c2ccccc12', '=', 4.60),
  ('O=C(CN(c1cccc(C(F)(F)F)c1)S(=O)(=O)c1ccc(Cl)cc1)NCc1ccc(F)c(F)c1', '=', 6.80),
  ('COc1cc(Nc2nccc(Nc3onc(C)c3C)n2)cc(S(=O)(=O)C2CCOCC2)c1', '=', 5.10),
  ('CN(Cc1ccccc1)Cc1nnnn1C1CCN(Cc2ccc(-n3ccnc3)cc2)CC1', '=', 7.30);

====

# Tested on: NIH3T3
# test-protocol: GSK_TCAKS: pIC50 NIH 3T3 cell line viability assay using luminiscence. Tissue culture surface treated assay plates (1536-well) were used. […] The 100% cells survival control was determined exposing the host-cells to a 0.5% DMSO concentration, whereas the 100% toxicity control was achieved by seeding the cells in presence of Amphotericin B at 50uM. Plates were incubated for four days at 37C, 5% CO2. The assay readout was developed by addition of 5uL of CellTiter-Glo Reagent following the manufacturer's instructions. Luminiscence was measured using a ViewLux.
# Format: functional, cell-based
# applied-conditions: Mus musculus, NIH3T3, 96 h
Each entry below lists one item and its recorded IC50 value.
reported-property: IC50

INSERT INTO measurements (structure_smiles_string, observed) VALUES
  ('COc1ccc(-c2nc3ncccc3o2)cc1NC(=O)c1cccs1', '> 50.1 µM'),
  ('Cc1c(CNC(=O)c2ccc(Cn3cc(Cl)c([N+](=O)[O-])n3)cc2)cnn1C', '> 50.1 µM'),
  ('O=C(C1CCCCC1)N1CCN(c2nnc(-c3ccccc3)c3ccccc23)CC1', '> 50.1 µM');

====

# System: Trypanosoma cruzi
# test-protocol: GSK_TCAKS: pIC50 Trypanosoma cruzi viability assay using beta-GAL activity. This assay was run at single shot at 5uM compound concentration per well. The biological reagents consisted of NIH-3T3 host cells and trypomastigotes parasitic cells; both cell types were set to a 3.3 * 10^5 cells/mL dilution in assay DMEM by means of a CASY cell counter device using a 60um capillary. 6 uL of the mixture were dispensed per well (about 1 * 10^3 host-cells and 1 * 10^3 parasites) with a Multidrop Combi dispenser. […] In all wells, the percentage of DMSO never exceeded 0.5%. Plates incubated for four days at 37C, 5% CO2. The substrate used for the assay fluorescence intensity (FLINT) readout was resorufin-beta-D-galactopiranoside (Sigma-Aldrich) at 5uM per well. It was diluted in PBS supplemented with the soft detergent Igepal (Fluka).
# Type: functional, organism-based, Mus musculus
# applied-conditions: Tulahuen, NIH3T3
pIC50: −log10 of the molar value.
Quick rule for you: pIC50 at 6 or higher means true (1), lower means false (0).

INSERT INTO measurements (compound, assigned_category) VALUES
  ('N#Cc1cccc(CN2CCC(N(Cc3cccnc3)C(=O)c3cc(F)c(F)cc3F)CC2)c1', 'true (1)'),
  ('c1cncc(CN(Cc2ccco2)Cc2c[nH]nc2-c2cccs2)c1', 'true (1)'),
  ('O=C(NCC1CCCCC1)c1cc(=O)c2ccccc2o1', 'true (1)'),
  ('Cc1ccc(NC(=O)c2ccnc(N3CCCC3)c2)cc1-c1ccsc1C(N)=O', 'false (0)'),
  ('COc1ccc(-c2csc(NC(=O)c3ccc([N+](=O)[O-])s3)n2)cc1', 'true (1)'),
  ('CN(Cc1nc2ccccc2s1)C(=O)C=Cc1cc2ccccc2o1', 'true (1)'),
  ('CNc1cncc(C2CCCN2C(=O)Cc2ccc3ccccc3c2)n1 (stereo not given)', 'true (1)'),
  ('CCN(Cc1ccncc1)Cc1ccc(NC(=O)c2cc(-c3ccc(F)cc3)n[nH]2)cc1', 'true (1)'),
  ('CCOc1ccc(N(C)S(=O)(=O)c2ccc3[nH]cc(C(=O)NC4CCCC4)c(=O)c3c2)cc1', 'false (0)'),
  ('O=C(Nc1ccc(C(=O)N2CCCC2c2ccc3c(c2)OCCCO3)cc1)c1ccco1 (stereo not given)', 'true (1)'),
  ('CCc1cc(C(=O)Nc2nccn2-c2ccccc2)cs1', 'false (0)'),
  ('Cc1c(Nc2cc(C3CC3)n[nH]2)ccc(C#N)c1Cl', 'false (0)'),
  ('O=C1NCc2cccc(Nc3nc(N[C@H]4CC[C@H](O)CC4)ncc3Br)c21', 'true (1)'),
  ('O=C(Nc1ccc(Br)cn1)c1ccc(Cn2cnc([N+](=O)[O-])n2)cc1', 'true (1)'),
  ('CNC(=O)C1Cc2ccccc2N1C(=O)COc1cccc(OC)c1 (stereo not given)', 'false (0)'),
  ('Cc1ccccc1NS(=O)(=O)c1ccc2[nH]cc(C(=O)NC3CCCC3)c(=O)c2c1', 'false (0)'),
  ('c1ccc(Nc2nc(-c3ccccn3)cc(N3CCOCC3)n2)cc1', 'false (0)'),
  ('CCC(CC)C(=O)Nc1ccc(-c2nnc(-c3ccc(OC)cc3)o2)cc1', 'false (0)'),
  ('OC[C@@H](Nc1nccc(-c2c(-c3ccc(F)cc3)ncn2C2CCNCC2)n1)c1ccccc1', 'false (0)'),
  ('Cc1ccc(C)c(CN2C(=O)NC3(CCc4ccccc43)C2=O)c1 (stereo not given)', 'false (0)'),
  ('COc1cccc(C(=O)[C@H]2C[C@@H]2CN(Cc2cccnc2)Cc2cccnc2)c1', 'true (1)'),
  ('Cc1ccc2onc(Nc3ccnc(Nc4cccc(S(C)(=O)=O)c4)n3)c2c1', 'false (0)'),
  ('Cc1[nH]c2ccccc2c(=O)c1Cc1c(C)[nH]c2ccccc2c1=O', 'false (0)'),
  ('O=C(c1ccc(Cl)cc1)c1ccc(OC(=O)N2CCOCC2)cc1', 'false (0)'),
  ('O=C(NCc1nnc2n1CCCCC2)c1csc(-c2ccccc2)n1', 'false (0)'),
  ('COc1ncc(-c2ccc3ncnc(N4CCOCC4)c3c2)cc1NS(C)(=O)=O', 'true (1)');
